Exercise: for every item that follows, state its recorded Log P.
details: pH 2.7
Marks after values point to notes of the source that are not given here.

Provide each entry's Log P from the list below.
1. CCOC(=O)C(C#N)=C(NC(C)c1ccn(C)n1)c1cccnc1Cl (racemic)
2. COC(=O)C(C#N)=C(NC(C)(C)c1ccc(OC)cc1)c1cccnc1Cl
3. CCOC(=O)C(C#N)=C(NC(c1cc2ccccc2s1)C(F)(F)F)c1cn(C)nc1C(F)F (racemic)
4. CCOC(=O)C(C#N)=C(NC(C)C(F)(F)F)c1sc(Cl)nc1Cl (racemic)
5. CCOC(=O)C(C#N)=C(NC(C)C(=O)OCC)c1cn(C)nc1C(F)F (centres unmarked)
6. CCc1ccc(C(C)NC(=C(C#N)C(=O)OC)c2cccnc2Cl)cc1 (centres unmarked)

Result:
1: 2.3^[a]; 2: 3.02^[a]; 3: 4.1^[a]; 4: 3.75^[a]; 5: 2.62^[a]; 6: 3.63^[a]

Provide each entry's Log P from the list below.
1. CCOC(=O)C(C#N)=C(NC(C)CN(C)C)c1ccsc1Br (centres unmarked)
2. COC(=O)C(C#N)=C(NC1(C)CCCCC1)c1cccnc1Cl

Result:
["1.44^[a]", "3.13^[a]"]

###

settings: LogP, preparation examples; HPLC method ([a], [b] or [c]) not stated
measurement name: chromatographic logP

Below: 5 compounds and their reported chromatographic logP.
CCOC(=O)/C(C#N)=C(\NCCc1ncc(C(F)(F)F)cc1Cl)c1cccnc1Cl = 3.57
CC(N/C(=C(/C#N)C(=O)O)c1sccc1Br)c1nccs1 (stereo not drawn) = 1.23
CC(N/C(=C(/C#N)C(=O)NC1CC1)c1cn(C)nc1C(F)F)c1nccs1 (stereo not drawn) = 2.04
CCN/C(=C(/C#N)C(=O)OCC)c1cccnc1-c1ccc(Cl)cc1 = 2.96
CC(C)NC(=O)/C(C#N)=C(\NC(C)c1nccs1)c1sccc1Br (stereo not drawn) = 3.11

Problem: Field request: chromatographic logP | item: CCOC(=O)/C(C#N)=C(\NCC(c1ccccc1)C(C)C)c1cccnc1Cl (stereo not drawn)
Result: 4.21

###

tested on: Phaedon cochleariae; details: spray on Chinese cabbage leaf-disks, 500 g/ha, after 7 days
Exercise: for every item that follows, state its recorded activity (mortality).
Numbers only, in %.

C#CC(C)(C)NC(=C(C#N)C(=O)OC)c1cccnc1Cl = 83
CCOC(=O)C(C#N)=C(NC(C)C(C)C)c1cccnc1-c1ccc(Cl)c(Cl)c1 (centres unmarked) = 100
CCOC(=O)C(C#N)=C(NC(C)c1nccs1)c1ncc(C(F)(F)F)cc1Cl (racemic) = 83
CC(C)NC(=O)C(C#N)=C(NC(C)C(C)C)c1cccnc1Cl (centres unmarked) = 100

Please turn your attention to the following entry.
Problem: Query activity (mortality) on Phaedon cochleariae for CCOC(=O)C(C#N)=C(NC(C)C(C)C)c1cccnc1-c1cncnc1 (centres unmarked)
Result: 100

###

conditions: pH 2.7
Marks after values point to notes of the source that are not given here.
Exercise: for every item that follows, state its recorded Log P.

CCOC(=O)C(C#N)=C(NC(C)c1ccc(Cl)cc1)c1cc(Cl)sc1Cl (racemic) [Compound 499] = 4.96^[a]

Provide each entry's Log P from the list below.
1. CCOC(=O)C(C#N)=C(NC(c1cc2ccccc2s1)C(F)(F)F)c1sccc1Cl (racemic) [Compound 162]
2. CCOC(=O)C(C#N)=C(NC(C)C(N)=O)c1ccncc1F (stereo not drawn) [Compound 733]
3. CCOC(=O)C(C#N)=C(NC(C)(C)c1ccc(Cl)cc1)c1cn(C)nc1C(F)F [Compound 1215]

Result:
1. 4.89^[a]
2. 1.37^[a]
3. 3.71^[a]

Provide each entry's Log P from the list below.
1. CCOC(=O)C(C#N)=C(Nc1ccc(Cl)cc1)c1sccc1Br [Compound 457]
2. CCOC(=O)C(C#N)=C(NC(C)(C)C#Cc1ccc(C#N)cc1)c1cccnc1Cl [Compound 1272]
3. CCOC(=O)C(C#N)=C(NCc1ccccn1)c1cn(C)nc1C(F)F [Compound 32]
4. CCOC(=O)C(C#N)=C(NC(C)C(=O)NC)c1scnc1Cl (stereo not drawn) [Compound 1476]

Result:
4.11^[a]
3.67^[a]
1.94^[a]
1.81^[a]

Problem: Field request: Log P | item: CCOC(=O)C(C#N)=C(NC(C)C(C)C)c1cn(C)nc1C(F)F (stereo not drawn) [Compound 933]
Result: 3.13^[a]

Value source: patent US8476197B2
